- TARGET_ENTITY: CDK1/CycB (Homo sapiens, UniProt P06493)
- Construct: GST
- Sequence (P06493 whole entry): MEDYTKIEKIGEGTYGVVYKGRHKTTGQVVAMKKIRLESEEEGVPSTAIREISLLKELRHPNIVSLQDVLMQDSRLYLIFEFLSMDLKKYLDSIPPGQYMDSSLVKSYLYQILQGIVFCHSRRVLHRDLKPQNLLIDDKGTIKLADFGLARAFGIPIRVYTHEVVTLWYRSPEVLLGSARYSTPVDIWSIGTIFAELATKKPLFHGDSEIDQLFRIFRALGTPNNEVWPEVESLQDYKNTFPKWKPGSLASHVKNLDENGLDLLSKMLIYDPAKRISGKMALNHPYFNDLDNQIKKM
- Sequence (P14635 whole entry partner): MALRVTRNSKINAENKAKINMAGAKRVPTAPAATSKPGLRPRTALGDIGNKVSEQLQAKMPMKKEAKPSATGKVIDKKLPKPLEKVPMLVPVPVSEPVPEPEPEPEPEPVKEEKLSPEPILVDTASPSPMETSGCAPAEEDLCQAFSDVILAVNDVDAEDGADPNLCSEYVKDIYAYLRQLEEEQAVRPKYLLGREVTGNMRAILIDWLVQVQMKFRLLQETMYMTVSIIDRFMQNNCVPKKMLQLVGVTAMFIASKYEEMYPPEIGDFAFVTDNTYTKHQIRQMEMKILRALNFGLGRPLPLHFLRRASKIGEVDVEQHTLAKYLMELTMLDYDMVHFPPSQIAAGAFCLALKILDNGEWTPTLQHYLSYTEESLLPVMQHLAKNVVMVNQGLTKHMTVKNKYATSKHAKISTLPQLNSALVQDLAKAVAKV
- ASSAY_PROTOCOL: CDK1/CycB kinase assay
- CONDITIONS_USED: 0.5 μM ATP
pIC50: −log10 of the molar value.

STRUCTURE_SMILES | pIC50
Cc1ccc(Nc2ncc(Br)c(N[C@H](C)[C@@H](C)O)n2)cc1NC(=O)N=S(C)(C)=O | 7.68
Cc1c(NC(=O)N=S(C)(C)=O)cccc1Nc1ncc(Br)c(N[C@H](C)[C@@H](C)O)n1 | 6.74
C[C@@H](Nc1nc(Nc2ccc(C(=O)N=S(C)(C)=O)cc2)ncc1Br)C(C)(C)O | 7.38
C[C@@H](O)[C@@H](C)Oc1nc(Nc2ccc(NC(=O)N=S(C)(C)=O)cc2)ncc1Br | 8.30
C[C@@H](O)[C@@H](C)Nc1nc(Nc2cccc(C(=O)N=S(C)(C)=O)c2)ncc1Br | 8.00
C[C@@H](O)[C@@H](C)Nc1nc(Nc2ccc(NC(=O)N=S(C)(C)=O)cc2)ncc1Br | 8.15
C[C@@H](Nc1nc(Nc2ccc(NC(=O)N=S(C)(C)=O)cc2)ncc1Br)C(C)(C)O | 7.68
C[C@@H](O)[C@@H](C)Nc1nc(Nc2cccc(NC(=O)N=S(C)(C)=O)c2)ncc1Br | 8.00
C[C@@H](O)[C@@H](C)Oc1nc(Nc2ccc(C(=O)N=S(C)(C)=O)cc2)ncc1Br | 7.77
C[C@@H](Nc1nc(Nc2cccc(NC(=O)N=S(C)(C)=O)c2)ncc1Br)C(C)(C)O | 7.62
